Target: Nicotinic acetylcholine receptor alpha1/beta1/epsilon/delta (Mus musculus) (UniProt P04756+P09690+P02716+P20782)
Test: Antagonist activity at mouse muscle alpha1beta1epsilondelta nAChR expressed in Xenopus oocytes assessed as inhibition of acetylcholine-induced effect at 1 uM incubated for 8 secs followed by compound washout measured after 241 secs by two-electrode voltage clamp technique
Assay type: cell-based
The source made the active and inactive calls. The calls are words filed in the database; no cut-off is given here.
The reply should be one of these categories: True = active, False = inactive

Query :: Write down the call the test reported for this compound. Item: O=C(/C=C/c1ccc2c(c1)OCO2)N1C[C@@H]2CNC[C@@H](C2)C1
Result :: False

Query :: State the result this test recorded for O=C([C@@H]1C[C@H]1c1ccccc1)N1C[C@@H]2CNC[C@@H](C2)C1 .
Result :: False

Query :: Status in this test for O=C(/C=C/c1ccsc1)N1C[C@@H]2CNC[C@@H](C2)C1 ?
Result :: False

Query :: What did this assay record as the result for O=C(CCc1cccnc1)N1C[C@@H]2CNC[C@@H](C2)C1 ?
Result :: False

Query :: Test call for this compound, please: O=C(CCc1ccccc1)N1C[C@@H]2CNC[C@@H](C2)C1
Result :: False

Query :: # outcome recorded in this test, key = COc1ccc(C#CC(=O)N2C[C@@H]3CNC[C@@H](C3)C2)cc1OC
Result :: True

Query :: For CS(=O)(=O)c1ccc(CC(=O)N2C[C@@H]3CNC[C@@H](C3)C2)cc1 , what call appears in the results of this test?
Result :: False

Query :: Hi, sorry to bother you, what did the test record for O=C(/C=C/c1ccc(F)cc1)N1C[C@@H]2CNC[C@@H](C2)C1 ?
Result :: False

Query :: Recorded call for Cc1cc(CC(=O)N2C[C@@H]3CNC[C@@H](C3)C2)on1 ?
Result :: False

Query :: Could you kindly confirm the outcome this assay logged for O=C(c1ccc(-n2ccnc2)cc1)N1C[C@@H]2CNC[C@@H](C2)C1 ?
Result :: False

###

Target: Neuronal acetylcholine receptor; alpha4/beta2 (Rattus norvegicus, UniProt P09483+P12390)
Sequence (P09483 whole entry): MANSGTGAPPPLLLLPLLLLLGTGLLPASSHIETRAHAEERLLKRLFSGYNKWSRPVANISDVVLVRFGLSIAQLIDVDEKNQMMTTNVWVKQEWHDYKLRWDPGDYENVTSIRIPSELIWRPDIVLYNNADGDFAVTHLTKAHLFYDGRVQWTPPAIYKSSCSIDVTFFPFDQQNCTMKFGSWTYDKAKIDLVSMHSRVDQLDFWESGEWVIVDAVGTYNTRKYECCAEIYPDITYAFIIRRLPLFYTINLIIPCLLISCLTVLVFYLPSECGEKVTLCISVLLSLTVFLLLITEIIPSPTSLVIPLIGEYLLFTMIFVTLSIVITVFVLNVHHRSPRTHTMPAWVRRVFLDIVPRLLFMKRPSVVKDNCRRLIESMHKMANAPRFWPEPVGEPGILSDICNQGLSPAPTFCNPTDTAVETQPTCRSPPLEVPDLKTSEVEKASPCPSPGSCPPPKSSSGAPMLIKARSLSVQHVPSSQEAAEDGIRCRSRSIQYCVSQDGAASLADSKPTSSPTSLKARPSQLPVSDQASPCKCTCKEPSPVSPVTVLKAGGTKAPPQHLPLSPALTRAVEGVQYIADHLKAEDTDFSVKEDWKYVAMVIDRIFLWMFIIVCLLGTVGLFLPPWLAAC
Sequence (P12390 whole entry): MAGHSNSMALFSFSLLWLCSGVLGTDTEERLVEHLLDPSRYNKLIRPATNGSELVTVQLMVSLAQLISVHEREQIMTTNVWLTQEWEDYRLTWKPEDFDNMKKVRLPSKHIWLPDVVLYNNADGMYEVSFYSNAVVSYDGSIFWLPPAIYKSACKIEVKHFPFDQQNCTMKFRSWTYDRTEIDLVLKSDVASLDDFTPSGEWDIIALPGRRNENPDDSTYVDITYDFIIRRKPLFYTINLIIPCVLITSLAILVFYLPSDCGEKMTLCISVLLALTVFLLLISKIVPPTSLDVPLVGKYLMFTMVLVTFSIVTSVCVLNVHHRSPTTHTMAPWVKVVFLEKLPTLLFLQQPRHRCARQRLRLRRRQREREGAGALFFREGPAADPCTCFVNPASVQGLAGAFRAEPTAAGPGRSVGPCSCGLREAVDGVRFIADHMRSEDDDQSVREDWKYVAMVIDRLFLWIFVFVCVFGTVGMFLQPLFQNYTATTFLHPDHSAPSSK
Experiment: Displacement of [3H]epibatidine from Sprague-Dawley rat brain alpha4beta2 nAChR after 90 mins by liquid scintillation counting analysis
Task for the reader: assign each of the following compounds its reported Ki.

Query :: # get_value(readout='Ki', item= O=C(/C=C/c1ccco1)N1C[C@@H]2CNC[C@@H](C2)C1 )
Result :: 288 nM

Query :: Which Ki is reported for this compound? O=C(C#Cc1ccccc1)N1C[C@@H]2CNC[C@@H](C2)C1
Result :: 10.9 nM

Query :: I am curious: what Ki value has been reported for O=C(/C=C/c1ccc(F)cc1)N1C[C@@H]2CNC[C@@H](C2)C1 ?
Result :: 20.7 nM

Query :: Using the record for Cc1ccc(C#CC(=O)N2C[C@@H]3CNC[C@@H](C3)C2)cc1 , report its Ki.
Result :: 10.9 nM

Query :: Please give the measured Ki for this compound: O=C(/C=C/c1cccs1)N1C[C@@H]2CNC[C@@H](C2)C1
Result :: 96.9 nM

Query :: Fill in: Ki of O=C(Cc1cccnc1)N1C[C@@H]2CNC[C@@H](C2)C1 is ___
Result :: 11.2 nM

Query :: Which measured Ki value corresponds to O=C(CCc1cccnc1)N1C[C@@H]2CNC[C@@H](C2)C1 ?
Result :: 39 nM

Query :: Name the recorded Ki for COc1ccc(/C=C/C(=O)N2C[C@@H]3CNC[C@@H](C3)C2)cc1 .
Result :: 39.6 nM

Query :: Given the compound O=C([C@@H]1C[C@H]1c1ccccc1)N1C[C@@H]2CNC[C@@H](C2)C1 , what is its reported Ki?
Result :: 1.2 nM

Query :: Give the measured Ki of O=C(/C=C/c1cccc2ccccc12)N1C[C@@H]2CNC[C@@H](C2)C1 .
Result :: 297 nM

Query :: Given the entry O=C(C#Cc1ccc2c(c1)OCO2)N1C[C@@H]2CNC[C@@H](C2)C1 , report its measured Ki.
Result :: 3.1 nM

Query :: Item O=C(/C=C/c1cccc(Cl)c1)N1C[C@@H]2CNC[C@@H](C2)C1 has what recorded Ki?
Result :: 23.7 nM

Query :: Which Ki reading was recorded for the compound O=C(c1csc(-c2ccncc2)n1)N1C[C@@H]2CNC[C@@H](C2)C1 ?
Result :: > 1000 nM

Query :: // query Ki value for entry COc1ccccc1C#CC(=O)N1C[C@@H]2CNC[C@@H](C2)C1
Result :: 242 nM

Query :: Given the entry O=C(c1ccc(-c2ccncc2)cc1)N1C[C@@H]2CNC[C@@H](C2)C1 , report its measured Ki.
Result :: 7.1 nM

Query :: What value of Ki has been reported for the following compound? O=C(Cc1c(F)c(F)c(F)c(F)c1F)N1C[C@@H]2CNC[C@@H](C2)C1
Result :: > 5000 nM

Query :: Which measured Ki value corresponds to O=C(/C=C/c1ccccc1)N1C[C@@H]2CNC[C@@H](C2)C1 ?
Result :: 55.1 nM

Query :: Entry under review: O=C(Cc1ccccc1)N1C[C@@H]2CNC[C@@H](C2)C1 . Reported Ki?
Result :: 57.6 nM

Query :: Returns the measured Ki for the input compound. Input: O=C(c1ccc(-n2ccnc2)cc1)N1C[C@@H]2CNC[C@@H](C2)C1
Result :: 5.6 nM

Query :: Entry O=C(Cc1ccncc1)N1C[C@@H]2CNC[C@@H](C2)C1 has what Ki?
Result :: 14.4 nM

###

Assay: Displacement of [3H]epibatidine from calf adrenal alpha3beta4 nAChR after 90 mins by liquid scintillation counting analysis
Set-up: species or system Bos taurus
reported.metric: Ki

Query :: Would you kindly share the measured Ki for O=C(c1ccc(-n2ccnc2)cc1)N1C[C@@H]2CNC[C@@H](C2)C1 ?
Result :: > 1000 nM

Query :: Which Ki value belongs to Cc1cc(CC(=O)N2C[C@@H]3CNC[C@@H](C3)C2)on1 ?
Result :: > 1000 nM

Query :: Ki lookup needed for O=C(/C=C/c1cccc([N+](=O)[O-])c1)N1C[C@@H]2CNC[C@@H](C2)C1 , thanks.
Result :: > 1000 nM

Query :: I am curious: what Ki value has been reported for Cc1ccc(C#CC(=O)N2C[C@@H]3CNC[C@@H](C3)C2)cc1 ?
Result :: > 1000 nM

Query :: What value of measured Ki is listed for O=C(C#Cc1cccc(F)c1)N1C[C@@H]2CNC[C@@H](C2)C1 ?
Result :: > 1000 nM

###

Target: Nicotinic acetylcholine receptor alpha1/beta1/epsilon/delta (Mus musculus) (UniProt P04756+P09690+P02716+P20782)
Test: Agonist activity at mouse muscle alpha1beta1epsilondelta nAChR expressed in Xenopus oocytes at 1 uM incubated for 8 secs followed by compound washout measured after 241 secs by two-electrode voltage clamp technique
Type: cell-based
Active and inactive are the calls of the source. No cut-off for these calls is given here.
reported.metric: Activity

In [3]: df
Out[3]:
                                smiles_data  measured_value
0  O=C(Cc1ccc2c(c1)OCO2)N1C[C@@H]2CNC[C@@H](C2)C1        inactive
1  O=C(/C=C/c1ccccc1)N1C[C@@H]2CNC[C@@H](C2)C1        inactive
2  O=C(c1ccc(-c2cccnc2)cc1)N1C[C@@H]2CNC[C@@H](C2)C1        inactive
3  COc1ccc(/C=C/C(=O)N2C[C@@H]3CNC[C@@H](C3)C2)cc1        inactive

Query :: Give the measured Activity of O=C(Cc1ccccc1)N1C[C@@H]2CNC[C@@H](C2)C1 .
Result :: inactive

Query :: Suppose we examine the molecule O=C(Cc1cccnc1)N1C[C@@H]2CNC[C@@H](C2)C1 ; what Activity value has been reported?
Result :: inactive

###

I'd appreciate it if you could supply pKi values for the items below.
Molecular target: Neuronal acetylcholine receptor subunit alpha-7 (Rattus norvegicus)
Sequence (Q05941 whole entry): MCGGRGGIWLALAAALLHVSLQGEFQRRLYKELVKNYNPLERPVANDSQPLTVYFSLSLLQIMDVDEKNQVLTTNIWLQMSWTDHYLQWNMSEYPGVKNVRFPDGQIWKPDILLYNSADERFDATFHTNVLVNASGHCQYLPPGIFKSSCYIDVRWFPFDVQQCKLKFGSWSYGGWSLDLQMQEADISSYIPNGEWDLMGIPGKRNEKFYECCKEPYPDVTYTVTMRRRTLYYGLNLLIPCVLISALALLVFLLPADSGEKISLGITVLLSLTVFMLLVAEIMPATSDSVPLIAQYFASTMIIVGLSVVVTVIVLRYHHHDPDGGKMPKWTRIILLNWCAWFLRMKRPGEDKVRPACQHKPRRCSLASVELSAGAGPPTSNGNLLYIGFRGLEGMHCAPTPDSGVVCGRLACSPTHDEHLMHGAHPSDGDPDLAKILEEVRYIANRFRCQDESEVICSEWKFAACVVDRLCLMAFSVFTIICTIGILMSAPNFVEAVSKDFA
Assay: Displacement of [3H]methyllycaconitine from Sprague-Dawley rat brain alpha7 nAChR after 120 mins by liquid scintillation counting analysis
pKi: −log10 of the molar value.

Query :: Short answer please: pKi, Neuronal acetylcholine receptor subunit alpha-7 (Rattus norvegicus), entry O=C(C#Cc1ccccc1)N1C[C@@H]2CNC[C@@H](C2)C1
Result :: < 5.30

Query :: What is its pKi for Neuronal acetylcholine receptor subunit alpha-7 (Rattus norvegicus)? Entry: O=c1c(-c2ccc3c(c2)OCO3)ccc2n1C[C@@H]1CNC[C@H]2C1
Result :: < 5.00

Query :: Notebook entry, Neuronal acetylcholine receptor subunit alpha-7 (Rattus norvegicus) assay: pKi of O=C(/C=C/c1cccs1)N1C[C@@H]2CNC[C@@H](C2)C1 = ?
Result :: < 5.00

Query :: Can you look up pKi on Neuronal acetylcholine receptor subunit alpha-7 (Rattus norvegicus) for CS(=O)(=O)c1ccc(CC(=O)N2C[C@@H]3CNC[C@@H](C3)C2)cc1 ?
Result :: < 5.30

Query :: What reported pKi corresponds to COc1cccc(C#CC(=O)N2C[C@@H]3CNC[C@@H](C3)C2)c1 on Neuronal acetylcholine receptor subunit alpha-7 (Rattus norvegicus)?
Result :: < 6.00

Query :: Request body: readout pKi, system Neuronal acetylcholine receptor subunit alpha-7 (Rattus norvegicus), query O=C([C@@H]1C[C@H]1c1ccccc1)N1C[C@@H]2CNC[C@@H](C2)C1 . Return the value.
Result :: < 5.00

Query :: What pKi appears in the records for this molecule with Neuronal acetylcholine receptor subunit alpha-7 (Rattus norvegicus)? O=c1c(-c2ccccc2)ccc2n1C[C@@H]1CNC[C@H]2C1
Result :: < 5.00

Query :: pKi of O=C(Cc1ccncc1)N1C[C@@H]2CNC[C@@H](C2)C1 on Neuronal acetylcholine receptor subunit alpha-7 (Rattus norvegicus)?
Result :: < 6.00

Query :: What is its pKi for Neuronal acetylcholine receptor subunit alpha-7 (Rattus norvegicus)? Entry: O=c1cccc2n1C[C@@H]1CNC[C@H]2C1
Result :: 6.58

Query :: Form field - read-out: pKi; system: Neuronal acetylcholine receptor subunit alpha-7 (Rattus norvegicus); submitted item: O=C(C#Cc1cccc(F)c1)N1C[C@@H]2CNC[C@@H](C2)C1
Result :: < 6.00

Query :: Lab request: please report pKi under test system Neuronal acetylcholine receptor subunit alpha-7 (Rattus norvegicus) for O=C(/C=C/c1ccccc1)N1C[C@@H]2CNC[C@@H](C2)C1
Result :: < 5.30

Query :: Entry O=C(/C=C/c1ccsc1)N1C[C@@H]2CNC[C@@H](C2)C1 , system Neuronal acetylcholine receptor subunit alpha-7 (Rattus norvegicus): what pKi was measured?
Result :: < 5.00

Query :: Form field: pKi recorded for O=C(COc1ccccc1Cl)N1C[C@@H]2CNC[C@@H](C2)C1 with Neuronal acetylcholine receptor subunit alpha-7 (Rattus norvegicus) (enter value)
Result :: < 5.30

Query :: Param readout= pKi; system= Neuronal acetylcholine receptor subunit alpha-7 (Rattus norvegicus); entry= O=C(/C=C/c1ccncc1)N1C[C@@H]2CNC[C@@H](C2)C1 ; returns value.
Result :: < 5.00

Query :: # query: pKi | item Cc1ccc(C#CC(=O)N2C[C@@H]3CNC[C@@H](C3)C2)cc1 | system: Neuronal acetylcholine receptor subunit alpha-7 (Rattus norvegicus)
Result :: < 6.00

Query :: Find pKi (Neuronal acetylcholine receptor subunit alpha-7 (Rattus norvegicus)) for the entry O=C(C#Cc1cccc2ccccc12)N1C[C@@H]2CNC[C@@H](C2)C1
Result :: < 6.00

Query :: Short answer please: pKi, Neuronal acetylcholine receptor subunit alpha-7 (Rattus norvegicus), entry O=C(/C=C/c1ccc2c(c1)OCO2)N1C[C@@H]2CNC[C@@H](C2)C1
Result :: < 6.00

Query :: Entry O=C(/C=C/c1cccnc1)N1C[C@@H]2CNC[C@@H](C2)C1 , system Neuronal acetylcholine receptor subunit alpha-7 (Rattus norvegicus): what pKi was measured?
Result :: < 6.00

Query :: Please tell me: pKi of O=C(/C=C/c1cccc2ccccc12)N1C[C@@H]2CNC[C@@H](C2)C1 , system Neuronal acetylcholine receptor subunit alpha-7 (Rattus norvegicus)?
Result :: < 6.00

Query :: Lookup: pKi / Neuronal acetylcholine receptor subunit alpha-7 (Rattus norvegicus) / O=C(/C=C/c1cccc(Cl)c1)N1C[C@@H]2CNC[C@@H](C2)C1
Result :: < 5.00
